# System: kochia (Kochia scoparia)
# Protocol Notes: Test A postemergence, kochia
# Format: in vivo
# Assay Context: 125 g ai/ha, postemergence; 0 to 100 scale, 0 is no effect, 100 is complete control; approximately 10 days

[
  {
    "Molecule": "Fc1cccc(Oc2ncc(Cl)cn2)c1OC/C=C/C(F)(F)F [Compound 25]",
    "Plant response rating, Kochia": 90
  },
  {
    "Molecule": "CC(COc1c(C#N)cccc1Oc1ncc(Cl)cn1)CC(F)(F)F (stereo not shown) [Compound 34]",
    "Plant response rating, Kochia": 90
  },
  {
    "Molecule": "N#Cc1cccc(Oc2ncc(F)cn2)c1OC/C=C/C(F)(F)F [Compound 39]",
    "Plant response rating, Kochia": 90
  },
  {
    "Molecule": "N#Cc1cccc(Oc2ncc(Cl)cn2)c1OCc1ccccc1Cl [Compound 2]",
    "Plant response rating, Kochia": 30
  },
  {
    "Molecule": "N#Cc1cccc(Oc2ncc(Cl)cn2)c1OCCCCC(F)(F)F [Compound 32]",
    "Plant response rating, Kochia": 100
  },
  {
    "Molecule": "Cc1cccc(Oc2ncc(Cl)cn2)c1OCCCF [Compound 57]",
    "Plant response rating, Kochia": 20
  },
  {
    "Molecule": "O=C(COc1c(Br)cccc1Oc1ncc(Cl)cn1)C(F)(F)C(F)(F)F [Compound 73]",
    "Plant response rating, Kochia": 50
  },
  {
    "Molecule": "N#Cc1cccc(Oc2ncc(Cl)cn2)c1OCC(F)(F)C(F)F [Compound 14]",
    "Plant response rating, Kochia": 100
  },
  {
    "Molecule": "FCCCOc1c(I)cccc1Oc1ncc(Cl)cn1 [Compound 66]",
    "Plant response rating, Kochia": 100
  },
  {
    "Molecule": "Fc1cccc(Oc2ncc(Cl)cn2)c1OCCC(F)(F)F [Compound 29]",
    "Plant response rating, Kochia": 40
  },
  {
    "Molecule": "Fc1cccc(Oc2ncc(Cl)cn2)c1OC/C=C/Cl [Compound 9]",
    "Plant response rating, Kochia": 70
  },
  {
    "Molecule": "N#CCCCOc1c(Cl)cccc1Oc1ncc(Cl)cn1 [Compound 45]",
    "Plant response rating, Kochia": 50
  },
  {
    "Molecule": "FC(F)(F)C(F)(F)CCCOc1c(Br)cccc1Oc1ncc(Cl)cn1 [Compound 49]",
    "Plant response rating, Kochia": 30
  }
]

* * *

Readings of Plant response rating, Galium for the listed compounds
# System: galium (catchweed bedstraw, Galium aparine)
# Protocol Notes: Test A postemergence, galium
# Type: in vivo
# Assay Context: 31 g ai/ha, postemergence; 0 to 100 scale, 0 is no effect, 100 is complete control; approximately 10 days

[
  {
    "Compound Structure": "Cl/C=C/COc1c(Cl)cccc1Oc1ncc(Cl)cn1",
    "Plant response rating, Galium": 10
  },
  {
    "Compound Structure": "CCCOc1c(C#N)cccc1Oc1ncc(Cl)cn1",
    "Plant response rating, Galium": 10
  },
  {
    "Compound Structure": "Cc1cccc(Oc2ncc(Cl)cn2)c1OC/C=C/C(F)(F)F",
    "Plant response rating, Galium": 0
  },
  {
    "Compound Structure": "Cc1cccc(Oc2ncc(Cl)cn2)c1OCCCF",
    "Plant response rating, Galium": 0
  },
  {
    "Compound Structure": "FC(F)=C(F)CCOc1c(Br)cccc1Oc1ncc(Cl)cn1",
    "Plant response rating, Galium": 10
  },
  {
    "Compound Structure": "Cc1cccc(Oc2ncc(Cl)cn2)c1OCCCC(F)(F)F",
    "Plant response rating, Galium": 0
  },
  {
    "Compound Structure": "FC(F)(F)CCCOc1c(Cl)cccc1Oc1ncc(Cl)cn1",
    "Plant response rating, Galium": 30
  },
  {
    "Compound Structure": "FC(F)(F)CCCOc1c(Oc2ncc(Cl)cn2)cccc1C(F)(F)F",
    "Plant response rating, Galium": 20
  },
  {
    "Compound Structure": "O=C(CCC(F)(F)F)COc1c(Br)cccc1Oc1ncc(Cl)cn1",
    "Plant response rating, Galium": 10
  },
  {
    "Compound Structure": "N#Cc1cccc(Oc2ncc(Cl)cn2)c1OCCCCC(F)(F)F",
    "Plant response rating, Galium": 70
  },
  {
    "Compound Structure": "N#Cc1cccc(Oc2ncc(F)cn2)c1OCCCF",
    "Plant response rating, Galium": 0
  },
  {
    "Compound Structure": "FC(F)(F)CCCCOc1c(Br)cccc1Oc1ncc(Cl)cn1",
    "Plant response rating, Galium": 50
  },
  {
    "Compound Structure": "FC(F)(F)CCCOc1c(Br)cccc1Oc1ncc(Cl)cn1",
    "Plant response rating, Galium": 40
  },
  {
    "Compound Structure": "N#Cc1cccc(Oc2ncc(F)cn2)c1OCCC(F)(F)F",
    "Plant response rating, Galium": 20
  },
  {
    "Compound Structure": "FCCCOc1c(Cl)cccc1Oc1ncc(Cl)cn1",
    "Plant response rating, Galium": 10
  },
  {
    "Compound Structure": "FC(F)(F)CCCOc1c(I)cccc1Oc1ncc(Cl)cn1",
    "Plant response rating, Galium": 70
  },
  {
    "Compound Structure": "N#CCCCOc1c(C#N)cccc1Oc1ncc(F)cn1",
    "Plant response rating, Galium": 40
  },
  {
    "Compound Structure": "FC(F)(F)CCOc1c(Cl)cccc1Oc1ncc(Cl)cn1",
    "Plant response rating, Galium": 20
  }
]

* * *

# Test system: ducksalad (Heteranthera limosa)
# Protocol Notes: Test B flooded paddy test, ducksalad
# Type: in vivo
# Assay Context: 250 g ai/ha, Flood; visual rating after 13 to 15 days; scale 0 to 100, 0 is no effect, 100 is complete control

[
  {
    "Compound Structure": "CC(C)CCCOc1c(Br)cccc1Oc1ncc(Cl)cn1",
    "Target": "ducksalad (Heteranthera limosa)",
    "Plant response rating, Ducksalad": 0
  },
  {
    "Compound Structure": "N#Cc1cccc(Oc2ncc(F)cn2)c1OCCCF",
    "Target": "ducksalad (Heteranthera limosa)",
    "Plant response rating, Ducksalad": 30
  },
  {
    "Compound Structure": "FC(F)(F)CCCCOc1c(Br)cccc1Oc1ncc(Cl)cn1",
    "Target": "ducksalad (Heteranthera limosa)",
    "Plant response rating, Ducksalad": 30
  },
  {
    "Compound Structure": "N#Cc1cccc(Oc2ncc(Cl)cn2)c1OCC(F)F",
    "Target": "ducksalad (Heteranthera limosa)",
    "Plant response rating, Ducksalad": 30
  },
  {
    "Compound Structure": "FC(F)(F)CCCOc1c(Br)cccc1Oc1ncc(Cl)cn1",
    "Target": "ducksalad (Heteranthera limosa)",
    "Plant response rating, Ducksalad": 75
  }
]

* * *

# Tested on: pigweed (Amaranthus retroflexus)
# Protocol Notes: Test A preemergence, pigweed
# Format: in vivo
# Assay Context: Amaranthus retroflexus, pre-emergence, 240 h; Preemergence, 31 g ai/ha; 0 to 100 scale (0 no effect, 100 complete control); read-out: Plant response rating, Pigweed
# Excerpt: Seeds of plant species selected from barnyardgrass (Echinochloa crus-galli), kochia (Kochia scoparia), ragweed (common ragweed, Ambrosia elatior), ryegrass, Italian (Italian ryegrass, Lolium multiflorum), foxtail, giant (giant foxtail, Setaria faberii), and pigweed (Amaranthus retroflexus), were planted into a blend of loam soil and sand and treated preemergence with a directed soil spray using test chemicals formulated in a non-phytotoxic solvent mixture which included a surfactant. […]
Property Name: pest or weed control at 31 g/ha (%)

[
  {
    "Molecule": "N#Cc1cccc(Oc2ncc(Cl)cn2)c1OCC(F)(F)F [Compound 1]",
    "Property Name": "pest or weed control at 31 g/ha",
    "Value Unit": "%",
    "Observed Measurement": 100
  },
  {
    "Molecule": "N#Cc1cccc(Oc2ncc(F)cn2)c1OCCCC(F)(F)F [Compound 4]",
    "Property Name": "pest or weed control at 31 g/ha",
    "Value Unit": "%",
    "Observed Measurement": 90
  },
  {
    "Molecule": "Cc1cccc(Oc2ncc(Cl)cn2)c1OCC(F)(F)F [Compound 63]",
    "Property Name": "pest or weed control at 31 g/ha",
    "Value Unit": "%",
    "Observed Measurement": 0
  },
  {
    "Molecule": "N#Cc1cccc(Oc2ncc(Cl)cn2)c1OC/C=C/C(F)(F)F [Compound 8]",
    "Property Name": "pest or weed control at 31 g/ha",
    "Value Unit": "%",
    "Observed Measurement": 100
  }
]

* * *

Entries and their measured Plant response rating, Barnyardgrass follow.
# Test system: barnyardgrass (Echinochloa crus-galli)
# Protocol Notes: Test A postemergence, barnyardgrass
# Type: in vivo
# Assay Context: 125 g ai/ha, postemergence; 0 to 100 scale, 0 is no effect, 100 is complete control; approximately 10 days

[
  {
    "Compound": "CC(COc1c(C#N)cccc1Oc1ncc(Cl)cn1)CC(F)(F)F (stereo not shown)",
    "Plant response rating, Barnyardgrass": 20
  },
  {
    "Compound": "CCCOc1c(C#N)cccc1Oc1ncc(Cl)cn1",
    "Plant response rating, Barnyardgrass": 20
  },
  {
    "Compound": "Cc1cccc(Oc2ncc(Cl)cn2)c1OCCCC(F)(F)F",
    "Plant response rating, Barnyardgrass": 20
  },
  {
    "Compound": "FC(F)COc1c(Br)cccc1Oc1ncc(Cl)cn1",
    "Plant response rating, Barnyardgrass": 20
  },
  {
    "Compound": "N#Cc1cccc(Oc2ncc(Cl)cn2)c1OCC(=O)CCC(F)(F)F",
    "Plant response rating, Barnyardgrass": 0
  },
  {
    "Compound": "N#Cc1cccc(Oc2ncc(Cl)cn2)c1OCc1cccc(Cl)c1",
    "Plant response rating, Barnyardgrass": 10
  },
  {
    "Compound": "Cc1cccc(Oc2ncc(Cl)cn2)c1OC/C=C/C(F)(F)F",
    "Plant response rating, Barnyardgrass": 70
  },
  {
    "Compound": "Cc1cccc(Oc2ncc(Cl)cn2)c1OCCCF",
    "Plant response rating, Barnyardgrass": 0
  },
  {
    "Compound": "N#CCCCOc1c(I)cccc1Oc1ncc(Cl)cn1",
    "Plant response rating, Barnyardgrass": 30
  },
  {
    "Compound": "FCCCOc1c(I)cccc1Oc1ncc(Cl)cn1",
    "Plant response rating, Barnyardgrass": 50
  }
]
